tested on: Plasma; test: Anticoagulant potency in rat plasma assessed as concentration required to double prothrombin time; type: functional
# strict inequality: Activity < 10 µM yields fulfilled, everything else yields not fulfilled

molecule: CN1CCc2nc(C(=O)N[C@@H]3CCCC[C@@H]3NC(=O)c3cc4cc(Cl)ccc4[nH]3)sc2C1 (relative stereo)
system_tested: Plasma
assigned_label: not fulfilled

molecule: CN1CCc2nc(C(=O)N[C@@H]3CCC[C@@H]3NC(=O)c3cc4cc(Cl)ccc4[nH]3)sc2C1
system_tested: Plasma
assigned_label: not fulfilled

molecule: CN1CCc2nc(C(=O)N[C@@H]3CCCC[C@H]3NC(=O)c3cc4cc(Cl)ccc4[nH]3)sc2C1 (relative stereo)
system_tested: Plasma
assigned_label: fulfilled

Report whether reported Activity is lower than 10 µM (strictly) for CN1CCc2nc(C(=O)N[C@@H]3CCC[C@H]3NC(=O)c3cc4cc(Cl)ccc4[nH]3)sc2C1 (relative stereo) not fulfilled

What about CN1CCc2nc(C(=O)N[C@@H]3CCCCC[C@H]3NC(=O)c3cc4cc(Cl)ccc4[nH]3)sc2C1 (relative stereo) ? not fulfilled

What about CN1CCc2nc(C(=O)N[C@@H]3CCCC[C@@H]3NC(=O)c3cc4cc(Cl)ccc4[nH]3)sc2C1 ? fulfilled

What about CN1CCc2nc(C(=O)N[C@H]3CCCC[C@H]3NC(=O)c3cc4cc(Cl)ccc4[nH]3)sc2C1 ? not fulfilled
